All values here come from ChEMBL document CHEMBL1138089.

Please respond with reported IC50 for every item in the list.
test system: Trypanosoma cruzi; test: Inhibitory activity against Trypanosoma cruzi; assay type: functional, organism-based

>  <smi>
CC(C)(C)C(=O)OCOP(=O)(OCOC(=O)C(C)(C)C)Oc1ccc(O)c(C=O)c1

>  <IC50>
> 50 µM

$$$$
>  <smi>
O=Cc1cc(OP(=O)(O)O)ccc1O

>  <IC50>
> 50 µM

$$$$
>  <smi>
CC(C)(C)C(=O)SCCOP(=O)(OCCSC(=O)C(C)(C)C)Oc1ccc(O)c(C=O)c1

>  <IC50>
15 µM

$$$$
>  <smi>
CC(=O)OCCSSCCOP(=O)(OCCSSCCOC(C)=O)Oc1ccc(O)c(C=O)c1

>  <IC50>
> 50 µM

$$$$

# context switch: different compound, same IC50
Please report the recorded IC50 for CC(=O)Oc1ccccc1CCC(=O)OCOP(=O)(OCOC(=O)CCc1ccccc1OC(C)=O)Oc1ccc(O)c(C=O)c1 .
> 50 µM

----------
test system: Trypanosoma brucei; test: Inhibitory activity against Trypanosoma brucei; format: functional, organism-based
test-readout: IC50 (µM)
One number for each entry, in µM.

>  <smi>
CC(C)(C)C(=O)SCCOP(=O)(OCCSC(=O)C(C)(C)C)Oc1ccc(O)c(C=O)c1

>  <subject-of-test>
Trypanosoma brucei

>  <test-readout>
IC50

>  <reported-measurement>
16

$$$$

Query compound follows.
Find the recorded IC50 belonging to CC(C)(C)C(=O)OCOP(=O)(OCOC(=O)C(C)(C)C)Oc1ccc(O)c(C=O)c1 and report it.
20

----------
system: Trypanosoma brucei; experiment: Inhibitory activity against Trypanosoma brucei; format: functional, organism-based
test-readout: IC50

>  <smi>
CC(=O)Oc1ccccc1CCC(=O)OCOP(=O)(OCOC(=O)CCc1ccccc1OC(C)=O)Oc1ccc(O)c(C=O)c1

>  <subject-of-test>
Trypanosoma brucei

>  <test-readout>
IC50

>  <reported-measurement>
> 50 µM

$$$$
>  <smi>
CC(=O)OCCSSCCOP(=O)(OCCSSCCOC(C)=O)Oc1ccc(O)c(C=O)c1

>  <subject-of-test>
Trypanosoma brucei

>  <test-readout>
IC50

>  <reported-measurement>
> 50 µM

$$$$

Could you now look at the following molecule, please?
Suppose we examine the molecule O=Cc1cc(OP(=O)(O)O)ccc1O ; what IC50 value has been reported?
> 50 µM
